# Procedure Text: Selectivity index, ratio of CC50 for human primary macrophages to EC50 for recombinant Ebola virus Mayinga expressing GFP infected in human primary macrophages
# Type: toxicity
# Test Conditions: read-out: Ratio CC50/EC50
Record form. Attribute: selectivity ratio. Fill in for each entry.
Just the number, please.

q: # input compound: COc1cc2c(OCCCN3CC4CCC3CO4)c3c(c(-c4ccc5c(c4)OCO5)c2cc1OC)C(=O)OC3 (stereo not given) ; wanted: its selectivity ratio
a: 319

q: # input compound: COc1cc2c(OCCCN3CC4CCC3CN4C)c3c(c(-c4ccc5c(c4)OCO5)c2cc1OC)C(=O)OC3 (stereo not given) ; wanted: its selectivity ratio
a: 3240

q: # input compound: COc1cc2c(OCCN3CCN(C)CC3)c3c(c(-c4ccc5c(c4)OCO5)c2cc1OC)C(=O)OC3 ; wanted: its selectivity ratio
a: 170

q: # input compound: COc1cc2c(OCCCN3[C@@H]4CC[C@H]3CN(C)C4)c3c(c(-c4ccc5c(c4)OCO5)c2cc1OC)C(=O)OC3 ; wanted: its selectivity ratio
a: 313

q: # input compound: COc1cc2c(O[C@@H]3O[C@H](C)[C@@H](O)[C@H](O)[C@H]3O)c3c(c(-c4ccc5c(c4)OCO5)c2cc1OC)C(=O)OC3 ; wanted: its selectivity ratio
a: 295

q: # input compound: COc1cc2c(OCCCN3CCS(=O)(=O)CC3)c3c(c(-c4ccc5c(c4)OCO5)c2cc1OC)C(=O)OC3 ; wanted: its selectivity ratio
a: 138

q: # input compound: COc1cc2c(OC3CCOC3)c3c(c(-c4ccc5c(c4)OCO5)c2cc1OC)C(=O)OC3 (stereo not given) ; wanted: its selectivity ratio
a: 132

q: # input compound: COc1cc2c(OCCCN3CC4CCC(C3)N4C)c3c(c(-c4ccc5c(c4)OCO5)c2cc1OC)C(=O)OC3 ; wanted: its selectivity ratio
a: 577

* * *

# Tested on: HEK293
# Procedure Text: Cytotoxicity against HEK293 cells incubated for 72 hrs by MTT assay
# Type: toxicity, cell-based
# Test Conditions: human, hek293, 72 h
Record form. Attribute: CC50. Fill in for each entry.

q: # input compound: COc1cc2c(OC3CCOCC3)c3c(c(-c4ccc5c(c4)OCO5)c2cc1OC)C(=O)OC3 ; wanted: its CC50
a: > 80 µM

q: # input compound: COc1cc2c(OC3CNC3)c3c(c(-c4ccc5c(c4)OCO5)c2cc1OC)C(=O)OC3 ; wanted: its CC50
a: > 80 µM

q: # input compound: COc1cc2c(OCCCN3CCS(=O)(=O)CC3)c3c(c(-c4ccc5c(c4)OCO5)c2cc1OC)C(=O)OC3 ; wanted: its CC50
a: > 80 µM

q: # input compound: COc1cc2c(OCCCN3CC4CCC3CN4C)c3c(c(-c4ccc5c(c4)OCO5)c2cc1OC)C(=O)OC3 (stereo not drawn) ; wanted: its CC50
a: 54 µM

q: # input compound: COc1cc2c(OCCCN3[C@@H]4CC[C@H]3CN(C)C4)c3c(c(-c4ccc5c(c4)OCO5)c2cc1OC)C(=O)OC3 ; wanted: its CC50
a: 71 µM

q: # input compound: COc1cc2c(OC3CCNC3)c3c(c(-c4ccc5c(c4)OCO5)c2cc1OC)C(=O)OC3 (stereo not drawn) ; wanted: its CC50
a: > 80 µM

q: # input compound: COc1cc2c(OCCCC#N)c3c(c(-c4ccc5c(c4)OCO5)c2cc1OC)C(=O)OC3 ; wanted: its CC50
a: > 80 µM

q: # input compound: COc1cc2c(OCC(O)CN3CCOCC3)c3c(c(-c4ccc5c(c4)OCO5)c2cc1OC)C(=O)OC3 (stereo not drawn) ; wanted: its CC50
a: > 80 µM

* * *

# Procedure Text: Selectivity index, ratio of CC50 for HEK293 cells to EC50 for recombinant Ebola virus Mayinga expressing GFP infected in human HeLa cells with ATP6V0a2 KO
# Assay type: toxicity, cell-based
# Test Conditions: read-out: Ratio CC50/EC50
Measured Property: selectivity ratio

q: # input compound: COc1cc2c(OC3CCOC3)c3c(c(-c4ccc5c(c4)OCO5)c2cc1OC)C(=O)OC3 (stereo not given) ; wanted: its selectivity ratio
a: 87

q: # input compound: CO/C1=C\C(C)=C\[C@@H](C)[C@@H](O)[C@@H](C)C/C(C)=C/C=C/[C@H](OC)[C@@H]([C@@H](C)[C@@H](O)[C@H](C)[C@@]2(O)C[C@@H](O)[C@H](C)[C@@H](C(C)C)O2)OC1=O ; wanted: its selectivity ratio
a: 470

q: # input compound: COc1cc2c(OCCCN3CC4CCC(C3)O4)c3c(c(-c4ccc5c(c4)OCO5)c2cc1OC)C(=O)OC3 ; wanted: its selectivity ratio
a: > 190

q: # input compound: COc1cc2c(OCCN3CCOCC3)c3c(c(-c4ccc5c(c4)OCO5)c2cc1OC)C(=O)OC3 ; wanted: its selectivity ratio
a: > 38

q: # input compound: COc1cc2c(OCC(O)CN3CCN(C)CC3)c3c(c(-c4ccc5c(c4)OCO5)c2cc1OC)C(=O)OC3 (stereo not given) ; wanted: its selectivity ratio
a: > 420

q: # input compound: COc1cc2c(OCCCN3[C@@H]4CC[C@H]3COC4)c3c(c(-c4ccc5c(c4)OCO5)c2cc1OC)C(=O)OC3 ; wanted: its selectivity ratio
a: > 190

q: # input compound: COc1cc2c(OC3CCNC3)c3c(c(-c4ccc5c(c4)OCO5)c2cc1OC)C(=O)OC3 (stereo not given) ; wanted: its selectivity ratio
a: 300

q: # input compound: COc1cc2c(OCCCC#N)c3c(c(-c4ccc5c(c4)OCO5)c2cc1OC)C(=O)OC3 ; wanted: its selectivity ratio
a: 130

q: # input compound: COc1cc2c(OCC(O)CN3CCOCC3)c3c(c(-c4ccc5c(c4)OCO5)c2cc1OC)C(=O)OC3 (stereo not given) ; wanted: its selectivity ratio
a: > 160

q: # input compound: COc1cc2c(OCCCN3CCOCC3)c3c(c(-c4ccc5c(c4)OCO5)c2cc1OC)C(=O)OC3 ; wanted: its selectivity ratio
a: > 230

q: # input compound: COc1cc2c(OCCCN3CCN(C)C(=O)C3)c3c(c(-c4ccc5c(c4)OCO5)c2cc1OC)C(=O)OC3 ; wanted: its selectivity ratio
a: > 340

q: # input compound: COc1cc2c(OCCCN3CCS(=O)(=O)CC3)c3c(c(-c4ccc5c(c4)OCO5)c2cc1OC)C(=O)OC3 ; wanted: its selectivity ratio
a: > 240

q: # input compound: COc1cc2c(OCCCN3CC4CCC3CN4C)c3c(c(-c4ccc5c(c4)OCO5)c2cc1OC)C(=O)OC3 (stereo not given) ; wanted: its selectivity ratio
a: > 1020

q: # input compound: COc1cc2c(OC3COC3)c3c(c(-c4ccc5c(c4)OCO5)c2cc1OC)C(=O)OC3 ; wanted: its selectivity ratio
a: > 79

q: # input compound: COc1cc2c(OCCCN3CCN(C(C)=O)CC3)c3c(c(-c4ccc5c(c4)OCO5)c2cc1OC)C(=O)OC3 ; wanted: its selectivity ratio
a: > 590

q: # input compound: COc1cc2c(OCCCN3CC4CC3CN4C)c3c(c(-c4ccc5c(c4)OCO5)c2cc1OC)C(=O)OC3 (stereo not given) ; wanted: its selectivity ratio
a: > 210

q: # input compound: COc1cc2c(OCCCN3CCN(S(C)(=O)=O)CC3)c3c(c(-c4ccc5c(c4)OCO5)c2cc1OC)C(=O)OC3 ; wanted: its selectivity ratio
a: > 550

q: # input compound: COc1cc2c(OCCCN3[C@@H]4CC[C@H]3CN(C)C4)c3c(c(-c4ccc5c(c4)OCO5)c2cc1OC)C(=O)OC3 ; wanted: its selectivity ratio
a: > 940

q: # input compound: COCCN1CCN(CC(O)COc2c3c(c(-c4ccc5c(c4)OCO5)c4cc(OC)c(OC)cc24)C(=O)OC3)CC1 (stereo not given) ; wanted: its selectivity ratio
a: > 580

q: # input compound: COc1cc2c(OCCCN3CCN(C)CC3)c3c(c(-c4ccc5c(c4)OCO5)c2cc1OC)C(=O)OC3 ; wanted: its selectivity ratio
a: > 630

q: # input compound: COc1cc2c(OCCCN3CC4CC3CO4)c3c(c(-c4ccc5c(c4)OCO5)c2cc1OC)C(=O)OC3 (stereo not given) ; wanted: its selectivity ratio
a: > 660

q: # input compound: COc1cc2c(O[C@@H]3O[C@H](C)[C@@H](O)[C@H](O)[C@H]3O)c3c(c(-c4ccc5c(c4)OCO5)c2cc1OC)C(=O)OC3 ; wanted: its selectivity ratio
a: > 59

q: # input compound: COc1cc2c(OCCN3CCN(C)CC3)c3c(c(-c4ccc5c(c4)OCO5)c2cc1OC)C(=O)OC3 ; wanted: its selectivity ratio
a: 300

q: # input compound: COc1cc2c(OC3CCOCC3)c3c(c(-c4ccc5c(c4)OCO5)c2cc1OC)C(=O)OC3 ; wanted: its selectivity ratio
a: 43

q: # input compound: COc1cc2c(OCC#N)c3c(c(-c4ccc5c(c4)OCO5)c2cc1OC)C(=O)OC3 ; wanted: its selectivity ratio
a: > 140

Origin of values: ChEMBL document CHEMBL5584240
